# Tested on: SN12C renal
# methodSummary: NCI tumour cell line growth inhibition, 48 h
Please provide measured GI50 for the entries that follow.

Could you tell me which GI50 is on file for COc1ccc(/C=C\c2cc(OC)c(OC)c(OC)c2)cc1OC ? 0.94 µM

Entry under review: O=[N+]([O-])c1cccc([As]=[As]c2cccc([N+](=O)[O-])c2)c1 (stereo not given) . Reported GI50? 0.11 µM

Sample COc1cccc(-n2ncc3c(N/N=C/c4ccncc4)ncnc32)c1 — what was its GI50? 4.95 µM

Value lookup for GI50; key = C[C@@H]1CC[C@H]2C(C(O)CCCCC(O)C3=C(C(F)(F)F)O[C@@H]4O[C@@]5(C)CC[C@H]6[C@H](C)CC[C@@H]3[C@@]46OO5)=C(C(F)(F)F)O[C@@H]3O[C@@]4(C)CC[C@@H]1[C@]32OO4 (stereo not given in full) 21 µM

I'd like to know its GI50. The molecule in question is O=C(COc1ccc(/C=C2\Oc3ccccc3C2=O)cc1)Nc1nc2c(s1)CCCC2 4.64 µM
